Listing of recorded pKd by entry.
- target entity: GORASP2, Q9H8Y8
- experiment summary: holdup assay
- Design: key: below the threshold = too weak to quantify, mostly under pKd 3.1 to 4
- condition set: plain residues with an end cap or a label only (N-terminal biotin on a linker: ado-ado)
quantity name: pKd

# binder, value measured
rows = [
    ("LPAVCYDIDI [PTTG2, Q9NZH5]", 3.66),
    ("RSSGGDDFWF [KCNV1, Q6PIU1]", 4.21),
    ("ILRKSTTTTV [PRR16, Q569H4]", 4.73),
    ("QKAPTKEFYA [SDC2, P34741]", 3.93),
    ("MHIQEKGFHV [EPHA6, Q9UF33]", 3.62),
    ("KSRVAFFEEL [NF2, P35240]", 3.87),
    ("TRKRSGEAAV [PFKM, P08237]", 3.61),
    ("AAVENKVTDL [PLXNB1, O43157]", 3.9),
    ("TGLWKHETTV [ADGRA3, Q8IWK6]", 3.98),
]
